- Tested on: BoHV-1 whole virus (purified virion) (Bovine herpesvirus 1 (BK1952, CVCC; Methods also says field isolate from China))
- assay notes: ELONA
assay readout: pKd
Answer as the number alone; pKd is minus log10 of concentration in mol/L.

# get_value(readout='pKd', item= GCTGCAATACTCATGGACAGGGCGGCGGGGTGGGGTGGGCGGTTTGATTCCCATGGGTGCGTCTGGAGTACGACCCTGAA [IBRV-A4] )
8.45
